Tested on: spontaneously hypertensive rats
TEST DESCRIPTION: Effectiveness in spontaneously hypertensive rats: systolic blood pressure by tail cuff method
Assay type: in vivo
CONDITION INFO: Rattus norvegicus; 100 mg/kg; 4 h; read-out: Change of systolic blood-pressures
The label depends only on change in vivo at 100 mg/kg: class 1 if it is at least -20%, class 0 if it is smaller.

CC[C@H]1CN(CCCC(=O)c2ccccc2)CC[C@H]1CCC(=O)c1cc(C)nc2ccccc12 class 1
CCCN1CC[C@@H](CCCc2cc(C)nc3ccccc23)[C@@H](CC)C1 class 0
CCCCCN1CC[C@@H](CCC(=O)c2cc(C)nc3ccccc23)[C@@H](CC)C1 class 0
CCCN1CC[C@@H](CCC(=O)c2cc(C)nc3ccc(OC)cc23)[C@@H](CC)C1 class 1
CCCCCN1CC[C@@H](CC(=O)Cc2cc(C(F)(F)F)nc3ccccc23)[C@@H](CC)C1 class 1
CCCCCN1CC[C@@H](CCCc2cc(C)nc3ccccc23)[C@@H](CC)C1 class 0

---

Test system: right ventricle of the heart
TEST DESCRIPTION: Guinea Pigs Electrostimulation Test (arrhythmias by electrostimulation of the right ventricle of the heart)
Format: in vivo
CONDITION INFO: Cavia porcellus, 0.5 h; at 16 mg/kg, intraduodenal, 30 minutes before stimulation; read-out: Percent increase in voltage required for arrhythmia

COMPOUND	change in vivo at 16 mg/kg [%]
CCCN1CC[C@@H](CCC(O)c2cc(C)nc3ccc(OC)cc23)[C@@H](CC)C1 (stereo partly shown) [Compound 40, N-propyl-2'-methyl-hydroquinicinol-1]	44
CCCc1cc(C(O)CC[C@@H]2CCN(CCC)C[C@@H]2CC)c2cc(OC)ccc2n1 (stereo partly shown) [Compound 42, N-propyl-2'-propyl-hydroquinicinol-1]	74
CCCN1CC[C@@H](CCCc2cc(O)nc3ccccc23)[C@@H](CC)C1 [Compound 48]	19
CCCN1CC[C@@H](CCC(O)c2cc(C)nc3ccccc23)[C@@H](CC)C1 (stereo partly shown) [Compound 38, N-propyl-2'-methyl-hydrocinchonicinol-1]	31
CCCN1CC[C@@H](CCC(=O)c2cc(C)nc3ccc(OC)cc23)[C@@H](CC)C1 [Compound 29]	9
CCCN1CC[C@@H](CCCc2cc(O)nc3ccc(OC)cc23)[C@@H](CC)C1 [Compound 49]	21
CC[C@H]1CN(CC(C)(C)O)CC[C@H]1CCC(=NOC)c1cc(C)nc2ccccc12 [Compound 66]	43

---

# change in vivo at 32 mg/kg listing for each entry below
Tested on: right ventricle of the heart
TEST DESCRIPTION: Guinea Pigs Electrostimulation Test (arrhythmias by electrostimulation of the right ventricle of the heart)
Assay type: in vivo
CONDITION INFO: Cavia porcellus, 0.5 h; standard dose 32 mg/kg intraduodenal, 30 minutes before stimulation; read-out: Percent increase in voltage required for arrhythmia
Method: Experiment 2-Effectiveness of the compounds of Examples in the Guinea Pigs Electrostimulation Test Arrhythmias are induced in guinea pigs by electrostimulation of the right ventricle of the heart. The animals are anaesthesized with urethane (1.2 g/kg i.p.) and artificially respirated before a needle electrode is inserted in the right ventricle of the heart. Substances are given intraduodinally 30 minutes before the stimulation at a standard dose of 32 mg/kg. […]

COMPOUND	MEASURED TARGET	change in vivo at 32 mg/kg [%]
CC[C@H]1CN(CC(C)(C)O)CC[C@H]1CCC(=O)c1cc(C(C)C)nc2ccccc12 [Compound 36]	right ventricle of the heart	91
CC[C@H]1CN(CCCC(=O)c2ccc(F)cc2)CC[C@H]1CCC(O)c1cc(C)nc2ccccc12 (stereo partly drawn) [Compound 39]	right ventricle of the heart	5
CCCCCN1CC[C@@H](CCC(=O)c2cc(C)nc3ccccc23)[C@@H](CC)C1 [Compound 27]	right ventricle of the heart	-2

---

Reported change in vivo at 32 mg/kg values for a set of compounds
Tested on: right ventricle of the heart
TEST DESCRIPTION: Guinea Pigs Electrostimulation Test (arrhythmias by electrostimulation of the right ventricle of the heart)
Assay type: in vivo
CONDITION INFO: Cavia porcellus, 0.5 h; standard dose 32 mg/kg intraduodenal, 30 minutes before stimulation; read-out: Percent increase in voltage required for arrhythmia
MEASURED QUANTITY: change in vivo at 32 mg/kg (%)

COMPOUND	MEASURED TARGET	RECORDED VALUE
CCCCCN1CC[C@@H](CCC(=O)c2cc(CCC)nc3ccccc23)[C@@H](CC)C1 [Compound 31, N-pentyl-2'-propyl-hydrocinchonicine]	right ventricle of the heart	31
CC[C@H]1CN(CCCC(=O)c2ccccc2)CC[C@H]1CCC(=O)c1cc(C)nc2ccccc12 [Compound 25]	right ventricle of the heart	5
CCCN1CC[C@@H](CCC(=O)c2cc(C)nc3ccccc23)[C@@H](CC)C1 [Compound 26, N-propyl-2'-methyl-hydrocinchonicine]	right ventricle of the heart	24
CCCc1cc(C(=O)CC[C@@H]2CCN(CCCC(=O)c3ccccc3)C[C@@H]2CC)c2ccccc2n1 [Compound 32]	right ventricle of the heart	52
CCCN1CC[C@@H](CCCc2cc(C)nc3ccccc23)[C@@H](CC)C1 [Compound 43]	right ventricle of the heart	9
CC[C@H]1CN(CCCC(=O)c2ccccc2)CC[C@H]1CC(O)Cc1cc(OC)nc2ccccc12 (stereo partly shown) [Compound 54]	right ventricle of the heart	16
CCCOc1cc(C(=O)CC[C@@H]2CCN(C)C[C@@H]2CC)c2ccccc2n1 [Compound 51]	right ventricle of the heart	-5

---

Test system: right ventricle of the heart
TEST DESCRIPTION: Guinea Pigs Electrostimulation Test (arrhythmias by electrostimulation of the right ventricle of the heart)
Assay type: in vivo
CONDITION INFO: Cavia porcellus, 0.5 h; at 8 mg/kg, intraduodenal, 30 minutes before stimulation; read-out: Percent increase in voltage required for arrhythmia
Kindly apply the following: true if change in vivo at 8 mg/kg is less than 60%, false in every other case.

COMPOUND	LABEL CLASS
CCCc1cc(C(O)CC[C@@H]2CCN(CCC)C[C@@H]2CC)c2ccccc2n1 (some centres unmarked) [Compound 41, N-propyl-2'-propyl-hydrocinchonicinol-1]	false
CCCN1CC[C@@H](CC(O)Cc2cc(C(F)(F)F)nc3ccccc23)[C@@H](CC)C1 (some centres unmarked) [Compound 60]	false
CC[C@H]1CN(C)CC[C@H]1CCC(=O)c1cc(OC)nc2ccccc12 [Compound 52]	true
CCCCCN1CC[C@@H](CC(O)Cc2cc(C(F)(F)F)nc3ccccc23)[C@@H](CC)C1 (some centres unmarked) [Compound 61]	true

---

Test system: spontaneously hypertensive rats
TEST DESCRIPTION: Effectiveness in spontaneously hypertensive rats: systolic blood pressure by tail cuff method
Assay type: in vivo
CONDITION INFO: Rattus norvegicus; 10 mg/kg; 2 h; read-out: Change of systolic blood-pressures
Protocol: Experiment 1-Effectiveness of the compounds of Examples in spontaneously hypertensive rats Systolic blood pressures were recorded by a modification of the tail cuff method described by I.M. Claxton et al., Eur. J.Pharmacology 37, 179 (1976). […] Prior to all measurements rats were placed in a heated environment (33.5±0.5° C.) before transfer to a restraining cage. Each determination of blood pressure was the mean of at least 6 readings. […]
Label key: YES means change in vivo at 10 mg/kg under -10%; NO means change in vivo at 10 mg/kg of -10% or more.

COMPOUND	LABEL CLASS
CCCc1cc(C(O)CC[C@@H]2CCN(CCC)C[C@@H]2CC)c2ccccc2n1 (stereo partly shown) [Compound 41, N-propyl-2'-propyl-hydrocinchonicinol-1]	YES
CCCN1CC[C@@H](CCC(=O)c2cc(C)nc3ccccc23)[C@@H](CC)C1 [Compound 26, N-propyl-2'-methyl-hydrocinchonicine]	NO
CC[C@H]1CN(CCCC(=O)c2ccc(F)cc2)CC[C@H]1CCCc1cc(C)nc2ccc(OCCC(C)C)cc12	YES
CCCN1CC[C@@H](CCC(O)c2cc(C)nc3ccccc23)[C@@H](CC)C1 (stereo partly shown) [Compound 38, N-propyl-2'-methyl-hydrocinchonicinol-1]	NO
CCCN1CC[C@@H](CC(=O)Cc2cc(OC)nc3ccccc23)[C@@H](CC)C1	NO
C=C[C@H]1CN(CCCC(=O)c2ccc(F)cc2)CC[C@H]1CCC(=O)c1cc(C)nc2ccccc12	NO
CC[C@H]1CN(CCCC(=O)c2ccc(F)cc2)CC[C@H]1CCCc1cc(C)nc2ccccc12	YES
CC[C@H]1CN(CCCC(=O)c2ccccc2)CC[C@H]1CC(O)Cc1cc(OC)nc2ccccc12 (stereo partly shown)	NO
CC[C@H]1CN(CCCC(=O)c2ccc(F)cc2)CC[C@H]1CCCc1cc(C(F)(F)F)nc2ccccc12	YES
CC[C@H]1CN(CCCC(=O)c2ccccc2)CC[C@H]1CCCc1cc(C)nc2ccccc12	NO
CCCc1cc(C(=O)CC[C@@H]2CCN(CCCC(=O)c3ccccc3)C[C@@H]2CC)c2ccccc2n1	YES
CC[C@H]1CN(CCCC(c2ccc(F)cc2)c2ccc(F)cc2)CC[C@H]1CC(O)Cc1cc(OC)nc2ccccc12 (stereo partly shown)	NO
